target: chicken gizzard smooth muscle myosin subfragment-1 chemically crosslinked to cardiac or skeletal actin (Gallus gallus, UniProt P10587)
Cut-off 0.5 µM on IC50: below means TRUE, at or above means FALSE.

## Input IC50 under 0.5 µM? Item: `N#Cc1ccccc1-c1ccc(C(=O)NC[C@H]2CCCCN2)c(NCCc2cccc(F)c2)n1`
## Output FALSE

## Input One more molecule: `CC(=O)N1CCC[C@@H]1CNC(=O)c1ccc(-c2ccccc2C#N)nc1NCCc1cccc(F)c1`
## Output TRUE

## Input Also `N#Cc1ccccc1-c1ccc(C(=O)NC[C@@H]2CCCN2C(=O)CCCN)c(NCCc2cccc(F)c2)n1` , if possible.
## Output FALSE

## Input Another molecule: `C[C@H](CO)CNC(=O)c1cc(F)c(-c2cnn(C)c2)nc1NCCc1cccc(F)c1`
## Output TRUE

## Input And what about the molecule Cn1cc(-c2ccc(C(=O)NCC3CCCCC(=O)N3)c(NCCc3cccc(F)c3)n2)cn1 (stereo not drawn) ?
## Output FALSE

## Input // next record `O=C(NCc1cccnc1)c1ccc(-c2ccccc2)nc1NCCN1CCCCC1=O`
## Output FALSE

## Input Also check `O=C(NCc1ccccc1)c1ccc(-c2ccccc2)nc1NCCc1ccccn1`
## Output FALSE

## Input Check `N#Cc1ccccc1-c1ccc(C(=O)NC[C@H]2CCCCN2C(=O)[C@H](N)CCCN)c(NCCc2cccc(F)c2)n1` too.
## Output TRUE

## Input Then this molecule: `O=C(Nc1ccncc1)c1ccc(-c2ccccc2)nc1NCCc1ccccn1`
## Output FALSE

## Input Moving on to the next molecule: `O=C(NCc1cccnc1)c1ccc(-c2ccccc2)nc1NCCc1c(F)cccc1F`
## Output TRUE

## Input Note, next up: `CC(C)(C)OC(=O)NCCn1nccc1CNC(=O)c1ccc(-c2ccccc2C#N)nc1NCCc1cccc(F)c1`
## Output FALSE

## Input Continue with `CN1CCN(C(=O)CCCN)[C@@H](CNC(=O)c2ccc(-c3ccccc3C#N)nc2NCCc2cccc(F)c2)C1`
## Output FALSE

## Input Try this molecule next: `Cn1cc(-c2nc(NCCc3cccc(F)c3)c(C(=O)NC[C@H]3CCCN3C(=O)[C@H](CCCNC(=O)OC(C)(C)C)NC(=O)OC(C)(C)C)cc2F)cn1`
## Output FALSE

## Input Same for `O=C1CNC[C@@H](CNC(=O)c2ccc(-c3cc[nH]n3)nc2NCCc2cccc(F)c2)N1`
## Output FALSE

## Input Subsequent entry: `N#Cc1ccccc1-c1ccc(C(=O)NCCCO)c(NCCc2cccc(F)c2)n1`
## Output TRUE

## Input Then what about the molecule `N#Cc1ccccc1-c1ccc(C(=O)NC[C@H]2CCN2C(=O)[C@H](N)CO)c(NCCc2cccc(F)c2)n1` ?
## Output TRUE

## Input Moving on to the next molecule: `N#Cc1ccccc1-c1ccc(C(=O)NC[C@H]2CCCCN2S(=O)(=O)CCCN)c(NCCc2cccc(F)c2)n1`
## Output TRUE

## Input Now give it for `N#Cc1ccccc1-c1ccc(C(=O)NC[C@H]2CCCCN2C(=O)CN)c(NCCc2cccc(F)c2)n1` too.
## Output TRUE

---

What IC50 was measured for each of the following?
target: chicken gizzard smooth muscle myosin subfragment-1 chemically crosslinked to cardiac or skeletal actin (Gallus gallus)
Just the number please, in nM, no unit attached.

## Input Recorded IC50 of `Cn1cc(-c2ccc(C(=O)NCc3ccn(CCN)n3)c(NCCc3cccc(F)c3)n2)cn1` , please.
## Output 1860

## Input Try this molecule next: `N#Cc1ccccc1-c1ccc(C(=O)NC[C@H]2CCCN2S(=O)(=O)CCCN2C(=O)c3ccccc3C2=O)c(NCCc2cccc(F)c2)n1`
## Output 11300

## Input Could you do the same for `CC(C)(C)OC(=O)NCCCN1C(=O)CC[C@@H]1CNC(=O)c1ccc(-c2ccccc2C#N)nc1NCCc1cccc(F)c1` , please?
## Output 518

## Input Same read-out for `C[C@H](CNC(=O)c1cc(F)c(-c2cnn(C)c2)nc1NCCc1cccc(F)c1)NS(C)(=O)=O` ?
## Output 1000

## Input Same question for `Cn1cc(-c2nc(NCCc3cccc(F)c3)c(C(=O)NC[C@H]3CCN3C(=O)COC(=O)CNC(=O)OC(C)(C)C)cc2F)cn1` please.
## Output 191

## Input // next record `C[C@@H](N)C(=O)N1CCC[C@@H]1CNC(=O)c1ccc(-c2ccccc2C#N)nc1NCCc1cccc(F)c1`
## Output 166

## Input What about this molecule? N#Cc1ccccc1-c1ccc(C(=O)NCC2CCCN2)c(NCCc2cccc(F)c2)n1 (stereo not drawn)
## Output 439

## Input Same for `N#Cc1ccccc1-c1ccc(C(=O)NC[C@H]2CCN2)c(NCCc2cccc(F)c2)n1`
## Output 413

## Input Item: `Cc1n[nH]c(C)c1CCNc1nc(-c2ccccc2)ccc1C(=O)NCc1cccnc1`
## Output 5940

## Input // next record `O=C(NCc1cccnc1)c1ccc(-c2ccccc2)nc1NCCc1cccs1`
## Output 149

## Input Then this molecule: `CCCNc1nc(-c2ccccc2)ccc1C(=O)NCc1cccnc1`
## Output 11400

## Input Repeat with NCCCN1CCC(CNC(=O)c2ccc(-c3cn[nH]c3)nc2NCCc2cccc(F)c2)C1=O (stereo not drawn)
## Output 3130

## Input # iterate: `N#Cc1ccccc1-c1ccc(C(=O)NC[C@@H](COC(=O)CN)NC(=O)CN)c(NCCc2cccc(F)c2)n1`
## Output 5700

## Input Next molecule up: `CC(C)(C)OC(=O)NCc1ncccc1CNC(=O)c1cc(F)c(-c2cn[nH]c2)nc1NCCc1cccc(F)c1`
## Output 488

## Input One more molecule: `CNCCNC(=O)c1ccc(-c2ccccc2C#N)nc1NCCc1cccc(F)c1`
## Output 4460

## Input Same question, `Cn1cc(-c2nc(NCCc3cccc(F)c3)c(C(=O)NCc3cccnc3)cc2Cl)cn1` this time
## Output 21

## Input Try this molecule next: `Cn1nccc1CNC(=O)c1ccc(-c2ccccc2C#N)nc1NCCc1cccc(F)c1`
## Output 31

## Input Here is the next molecule: `O=C(NC[C@@H]1CCNC1)c1ccc(-c2ccccc2)nc1NCCc1ccccn1`
## Output 53600
